- Test system: 231 EpiR (epirubicin-resistant MDA-MB-231 cells)
- Test: HDAC inhibitor cytotoxicity, CellTiter-Glo viability
- Assay type: cell-based, human
- Condition Details: 72 h, CellTiter-Glo, in the presence of selection dose of epirubicin (25 nM)
Measure Name: pIC50
One number for each entry, as −log10 of the molar value.

| Chem Smiles | Assay System | pIC50 |
| --- | --- | --- |
| CC(/C=C/C(=O)NO)=C\[C@@H](C)C(=O)c1ccc(N(C)C)cc1 | 231 EpiR (epirubicin-resistant MDA-MB-231 cells) | 6.82 |
| CCN(CC)Cc1ccc2cc(COC(=O)Nc3ccc(C(=O)NO)cc3)ccc2c1 | 231 EpiR (epirubicin-resistant MDA-MB-231 cells) | 6.80 |

Lab note: next compound to report on.
Requested field: pIC50. Item: CCC(=O)CCCCC[C@@H]1NC(=O)[C@H]2CCCCN2C(=O)[C@H]([C@@H](C)CC)NC(=O)[C@H](Cc2cn(OC)c3ccccc23)NC1=O 6.96
